assay: Elimination rate constant in healthy human plasma at 800 mg, po administered as single dose measured after 120 hrs; format: ADME, organism-based

- Molecule: "CC[C@H]1OC(=O)[C@H](C)C(=O)[C@H](C)[C@@H](O[C@@H]2O[C@H](C)C[C@H](N(C)C)[C@H]2O)[C@@]2(C)C[C@@H](C)/C(=N\\C(C)=O)[C@H](C)[C@@H](OC/C(=N\\OCc3ccc(-n4cccn4)nc3)CO2)[C@]1(C)O"
  Readout Units: "s⁻¹"
  k el at 120 h: "1.09e-05"

====

experiment: Tmax in healthy human plasma at 100 mg, po administered as single dose measured after 120 hrs; type: ADME, organism-based

- Molecule: "CC[C@H]1OC(=O)[C@H](C)C(=O)[C@H](C)[C@@H](O[C@@H]2O[C@H](C)C[C@H](N(C)C)[C@H]2O)[C@@]2(C)C[C@@H](C)/C(=N\\C(C)=O)[C@H](C)[C@@H](OC/C(=N\\OCc3ccc(-n4cccn4)nc3)CO2)[C@]1(C)O [MODITHROMYCIN]"
  Tmax / h: 1.75

====

assay: Renal clearance in healthy human assessed as cumulative fraction excreted unchanged in urine at 400 mg, po administered as single dose measured after 48 hrs; format: ADME, organism-based; settings: read-out: Fraction Recovered in urine
Property Label: dose excreted at 48 h (%)

- Compound: "CC[C@H]1OC(=O)[C@H](C)C(=O)[C@H](C)[C@@H](O[C@@H]2O[C@H](C)C[C@H](N(C)C)[C@H]2O)[C@@]2(C)C[C@@H](C)/C(=N\\C(C)=O)[C@H](C)[C@@H](OC/C(=N\\OCc3ccc(-n4cccn4)nc3)CO2)[C@]1(C)O [MODITHROMYCIN]"
  Reported Result: 10.5

====

assay: Half life in healthy human at 400 mg, po administered as single dose; format: ADME, organism-based; conditions: in vivo
Property Label: half-life (h)

- Compound: "CC[C@H]1OC(=O)[C@H](C)[C@@H](O[C@H]2C[C@@](C)(OC)[C@@H](O)[C@H](C)O2)[C@H](C)[C@@H](O[C@@H]2O[C@H](C)C[C@H](N(C)C)[C@H]2O)[C@](C)(OC)C[C@@H](C)C(=O)[C@H](C)[C@@H](O)[C@]1(C)O [CLARITHROMYCIN]"
  Reported Result: 3.89

====

experiment: Tmax in healthy human plasma at 400 mg, po administered as single dose measured after 120 hrs; format: ADME, organism-based

- Compound: "CC[C@H]1OC(=O)[C@H](C)C(=O)[C@H](C)[C@@H](O[C@@H]2O[C@H](C)C[C@H](N(C)C)[C@H]2O)[C@@]2(C)C[C@@H](C)/C(=N\\C(C)=O)[C@H](C)[C@@H](OC/C(=N\\OCc3ccc(-n4cccn4)nc3)CO2)[C@]1(C)O [MODITHROMYCIN]"
  Tmax: "3.25 h"

====

assay: Apparent oral clearance in healthy human plasma at 800 mg, po administered as single dose measured after 120 hrs; format: ADME, organism-based

- Molecule: "CC[C@H]1OC(=O)[C@H](C)C(=O)[C@H](C)[C@@H](O[C@@H]2O[C@H](C)C[C@H](N(C)C)[C@H]2O)[C@@]2(C)C[C@@H](C)/C(=N\\C(C)=O)[C@H](C)[C@@H](OC/C(=N\\OCc3ccc(-n4cccn4)nc3)CO2)[C@]1(C)O"
  CL/F: "393 mL/min"

====

assay: AUC (0 to last) in healthy human plasma at 1200 mg, po administered as single dose measured after 120 hrs; assay type: ADME, organism-based; design: dose 1200 mg, route oral, time 0 - last
Property Label: AUC(0-t) at 120 h (ng·h/mL)

- Molecule: "CC[C@H]1OC(=O)[C@H](C)C(=O)[C@H](C)[C@@H](O[C@@H]2O[C@H](C)C[C@H](N(C)C)[C@H]2O)[C@@]2(C)C[C@@H](C)/C(=N\\C(C)=O)[C@H](C)[C@@H](OC/C(=N\\OCc3ccc(-n4cccn4)nc3)CO2)[C@]1(C)O [MODITHROMYCIN]"
  Readout Units: "ng·h/mL"
  Reported Result: 37400

====

assay: Apparent oral clearance in healthy human plasma at 100 mg, po administered as single dose measured after 120 hrs; type: ADME, organism-based
Property Label: CL/F (mL/min)

- Molecule: "CC[C@H]1OC(=O)[C@H](C)C(=O)[C@H](C)[C@@H](O[C@@H]2O[C@H](C)C[C@H](N(C)C)[C@H]2O)[C@@]2(C)C[C@@H](C)/C(=N\\C(C)=O)[C@H](C)[C@@H](OC/C(=N\\OCc3ccc(-n4cccn4)nc3)CO2)[C@]1(C)O [MODITHROMYCIN]"
  Property Label: "CL/F"
  Reported Result: 485
